Target: RgSBP (RUMGNA_02698); solute-binding protein of the sialic acid ABC transporter, full-length excluding the signal sequence (residues 1-29), N-terminal His-tag …
Test: Isothermal titration calorimetry (ITC) of 2,7-anhydro-Neu5Ac binding to RgSBP (FIG. 4A)
Conditions: 50 mM Tris-HCl pH 7.5, cell protein 100 μM, syringe ligand 2 mM, single-binding site model
Experimental Readout: pKd
API: returns pKd as number; meaning -log10 of concentration in mol/L.

INPUT: Fill in the blank: the reported pKd of CC(=O)NC1C(O)CC2(C(=O)O)OC(C(O)CO)C1O2 (stereo not shown) [2,7-anhydro-Neu5Ac] is ____.
OUTPUT: 5.65

These data points were gathered from patent US20210254138A1.
